Reported values of cell viability for individual entries
# Test system: OCI-AML2;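 note: after 48 h exposure read by CellTiter-Glo luminescence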
# experimentSummary: cell viability relative to vehicle control; higher = less cytotoxic
# protocolConditions: 10 µM; SRSF2 genotype: P95H/wt

molecule | testedTarget | valueUnit | cell viability
COc1cc(OC)c(/C=C/S(=O)(=O)Cc2ccc(OC)c(NCC(=O)O)c2)c(OC)c1 | OCI-AML2 | % | 1.32
Cc1cc(=O)oc2cc(O)ccc12 | OCI-AML2 | % | 100
Cc1cc(C2CCCCC2)n(O)c(=O)c1 | OCI-AML2 | % | 15.5
OCCN(CCO)c1nc(N2CCCCC2)c2nc(N(CCO)CCO)nc(N3CCCCC3)c2n1 [Dipyridamole (Persantine)] | OCI-AML2 | % | 99.9
Cc1cnc(C(=O)NCCc2ccc(S(=O)(=O)NC(=O)NC3CCCCC3)cc2)cn1 [Glipizide (Glucotrol)] | OCI-AML2 | % | 96.6
CO[C@]1(CC[C@@H](C)CO[C@@H]2O[C@H](CO)[C@@H](O)[C@H](O)[C@H]2O)O[C@H]2C[C@H]3[C@@H]4CC=C5C[C@@H](O[C@@H]6O[C@H](CO)[C@@H](O[C@@H]7O[C@@H](C)[C@H](O)[C@@H](O)[C@H]7O)[C@H](O)[C@H]6O[C@@H]6O[C@@H](C)[C@H](O)[C@@H](O)[C@H]6O)CC[C@]5(C)[C@H]4CC[C@]3(C)[C@H]2[C@@H]1C | OCI-AML2 | % | 0.5

Measured values drawn from the supplement of paper PMC10981050 for this set.
